# experimental-details: Leishmania major promastigote growth inhibition, primary screen (AID 1063);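 further: promastigotes grown with compound for 44 hours at 28 °C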
# condition-description: Leishmania major promastigotes, resazurin fluorescence viability; at 10 µM; hits give high values
Among all 200,000 compounds or so, about 18,000 (9%) were called active. For the sample, actives were picked, then their nearest neighbours and some compounds at random.
I'd appreciate it if you marked entries Criterion met when inhibition is lower than 30% and Criterion not met when it is not.

Please state whether inhibition is below 30% for `Cc1cc(C)c2[nH]c(=O)c(CN(Cc3ccccc3)C(=S)NCCCN(C)C)cc2c1`
Criterion not met

Please state whether inhibition is below 30% for `Cc1cccc2cc(CN(Cc3cccs3)C(=S)NCc3ccco3)c(=O)[nH]c12`
Criterion not met

Please state whether inhibition is below 30% for `COCCCNC(=S)N(Cc1ccccc1)Cc1ccc(F)cc1`
Criterion met

Please state whether inhibition is below 30% for `O=c1c2c(nc3n1CCCCC3)sc1c(O)cccc12`
Criterion met

Please state whether inhibition is below 30% for `CCc1ccc(N2CC(O)=C(c3nc4ccccc4c(=O)[nH]3)C2=N)cc1`
Criterion met

Please state whether inhibition is below 30% for `Cn1cnnc1Sc1ccc(S(C)(=O)=O)cc1[N+](=O)[O-]`
Criterion met

Please state whether inhibition is below 30% for `NC(=O)Cn1nc([N+](=O)[O-])nc1Oc1ccc(Br)cc1`
Criterion not met

Please state whether inhibition is below 30% for `Cc1c(C(=O)Nc2ccccc2)sc2nc3n(c(=O)c12)CCCCC3`
Criterion not met

Please state whether inhibition is below 30% for `COc1ccc(NC(=O)CN2C(=O)CSC2=O)cc1`
Criterion met

Please state whether inhibition is below 30% for `O=C(COc1ccccc1Cl)Nc1ccc(C(=O)c2ccc(C(=O)O)cc2)cc1`
Criterion met

Please state whether inhibition is below 30% for `O=C(Nn1cnnc1)c1ccc([N+](=O)[O-])cc1`
Criterion met

* * *

# experimental-details: Leishmania major promastigote growth inhibition, primary screen (AID 1063);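 further: promastigotes grown with compound for 44 hours at 28 °C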
# condition-description: Leishmania major promastigotes, resazurin fluorescence viability; at 10 µM; hits give high values
Among all 200,000 compounds or so, about 18,000 (9%) were called active. Many of the other results were omitted from the sample, so actives are more common in it than they were.
parameter-measured: inhibition (%)
Numeric answer only, unit % assumed.

Tell me its inhibition given `COc1ccc(CCNC(=O)CCCCn2c(=O)[nH]c3ccccc3c2=O)cc1OC` as the entry.
1.29

Tell me its inhibition given `COC(=O)c1ccc(COC(=O)c2cnccn2)cc1` as the entry.
-1.35

Tell me its inhibition given CCc1ccccc1N1C(=O)C2C3CC(=O)C(c4ccccc43)C2C1=O (stereo not drawn) as the entry.
7.01

Tell me its inhibition given `COC(=O)C1=C(C)NC(=O)/C1=C/c1ccc(CNS(=O)(=O)c2ccc(C)cc2)o1` as the entry.
15.8

Tell me its inhibition given COCC(C)n1c(SCc2ccc(C(=O)OC)o2)nc2ccccc2c1=O (stereo not drawn) as the entry.
89

Tell me its inhibition given `Cc1ccc(C(=O)N/C(=C/c2ccco2)C(=O)NCCc2c[nH]c3ccccc23)cc1C` as the entry.
32.8

Tell me its inhibition given Cc1cccc(NC(=O)N(Cc2cc3cc(C)cc(C)c3[nH]c2=O)CC2COCCO2)c1 (stereo not drawn) as the entry.
37.5

Tell me its inhibition given S=C(Nc1cccc(Br)c1)N1CCn2cccc2C1c1cccnc1 (stereo not drawn) as the entry.
91.2

Tell me its inhibition given Cc1ccc2[nH]c(=O)c(CN(CC3COCCO3)C(=O)Nc3ccccc3C)cc2c1 (stereo not drawn) as the entry.
4

Tell me its inhibition given `COC(=O)C1=C(C)N(c2ccc(Br)cc2)C(=O)/C1=C\c1ccco1` as the entry.
24.7

Tell me its inhibition given `CCS(=O)(=O)c1ccc(C(=O)NC)c(Cl)c1Cl` as the entry.
2.32

Tell me its inhibition given `COc1ccc(C(=O)NNc2cc(C)nc(NNC(=O)c3ccc(OC)cc3)n2)cc1` as the entry.
-8.08

Tell me its inhibition given `C=CCn1nc(-c2ccccc2)c2c(C)onc2c1=O` as the entry.
2.35

Tell me its inhibition given `O=C(CSCc1ccc(Cl)cc1)N1CCCCC1` as the entry.
-3.7

Tell me its inhibition given `CC(=O)Nc1ccc(S(=O)(=O)N2CCSCC2)cc1` as the entry.
0.03

Tell me its inhibition given CC(=O)Nc1ccc(NC(=O)CSc2nnc(COc3ccccc3C)n2CC2CCCO2)cc1 (stereo not drawn) as the entry.
-3.47

Tell me its inhibition given `Cc1cc(-c2n[nH]c(=S)n2/N=C/C(Br)=C/c2ccccc2)n[nH]1` as the entry.
88.5

Tell me its inhibition given COc1cc2c(cc1OC)C(c1ccncc1)CC(=O)N2 (stereo not drawn) as the entry.
-6.82

Tell me its inhibition given `Cc1ccc(SCCC(=O)OCC(=O)Nc2ncc(Cl)cc2Cl)cc1` as the entry.
-4.94

Tell me its inhibition given `Cc1cc(C)n(CCNCc2c(C(=O)N3C[C@@H](C)O[C@@H](C)C3)nc3ccc(Cl)cn23)n1` as the entry.
-6.81

Tell me its inhibition given `O=C(CCn1c(=O)[nH]c2ccccc2c1=O)NCCCN1CCN(c2cccc(Cl)c2)CC1` as the entry.
3.18

Tell me its inhibition given `COc1ccccc1N1CCN(/N=C\C(Br)=C\c2ccccc2)CC1` as the entry.
-5.39

Tell me its inhibition given `CC(=O)N/C(=C/c1ccc(Cl)cc1)C(=O)NCCc1c[nH]c2ccccc12` as the entry.
92.8

Tell me its inhibition given `CC(=O)Nc1ccc(S(=O)(=O)N2CCN(CCCOc3cc(C)ccc3C)CC2)cc1` as the entry.
72.8

Tell me its inhibition given `O=C(CN1C(=O)/C(=C/c2ccccc2F)Sc2ccccc21)NCc1cccnc1` as the entry.
19.2

Tell me its inhibition given `O=C(N/N=C/c1ccc(O)cc1)/C(=C/c1ccc([N+](=O)[O-])cc1)NC(=O)c1ccccc1` as the entry.
-2.54

Tell me its inhibition given `Cc1ccc(Cl)cc1NC(=O)COC(=O)CC(C)(C)C` as the entry.
34.5

Tell me its inhibition given `CCn1c(CNC(=O)c2ccco2)nnc1SCC(=O)Nc1cccc(F)c1` as the entry.
-1.95

Tell me its inhibition given COC(=O)c1ccc(C2CC(=O)Nc3cc(OC)c(OC)cc32)cc1 (stereo not drawn) as the entry.
53.2

Tell me its inhibition given `Cc1ccccc1NCC(=O)N/N=C\c1ccc([N+](=O)[O-])s1` as the entry.
101

Tell me its inhibition given `COC(=O)c1ccc(CSc2nc3ccccc3c(=O)n2-c2cccc(OC)c2)o1` as the entry.
46.8

Tell me its inhibition given `CCOc1cc(N2CCOCC2)c(OCC)cc1NC(=O)C1=NN(c2cccc(C)c2)C(=O)CC1` as the entry.
13.6

Tell me its inhibition given `Cc1ccccc1-c1n[nH]c(=S)n1/N=C/c1ccc(-c2ccccc2Br)o1` as the entry.
23

Tell me its inhibition given `O=C(CN1C(=O)/C(=C\c2ccc(C(F)(F)F)cc2)Sc2ccccc21)NCc1ccco1` as the entry.
95.1

Tell me its inhibition given `CS(=O)(=O)N(CC(=O)N1CCN(Cc2ccc3c(c2)OCO3)CC1)c1ccc2c(c1)OCO2` as the entry.
-5.11

Tell me its inhibition given `CCN(C(=O)c1ccc(Br)cc1)c1ccccc1` as the entry.
3.92

Tell me its inhibition given `O=C(CSCc1ccc(Cl)cc1)N1CCN(Cc2ccc3c(c2)OCO3)CC1` as the entry.
90.7

Tell me its inhibition given `Nc1[nH]c(=S)nc2nc(-c3ccccc3)c(-c3ccccc3)nc12` as the entry.
29.6

Tell me its inhibition given `O=C1CCN(C(=S)NCCc2ccccc2)CC1` as the entry.
-11.3

Tell me its inhibition given S=C(NCCc1ccccc1)N1CCn2cccc2C1c1ccncc1 (stereo not drawn) as the entry.
81.9

Tell me its inhibition given `COc1ccc(C=Nc2cccc3ncccc23)cc1` as the entry.
-0.39

Tell me its inhibition given `COCCCNC(=S)NNC(=O)C(O)(c1ccccc1)c1ccccc1` as the entry.
-3.7

Tell me its inhibition given `COc1ccc(Sc2nc(-c3ccccc3)ncc2OC)cc1` as the entry.
-4.44

* * *

Answer each item with its documented inhibition.
# experimental-details: Leishmania major promastigote growth inhibition, primary screen (AID 1063);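 further: promastigotes grown with compound for 44 hours at 28 °C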
# condition-description: Leishmania major promastigotes, resazurin fluorescence viability; at 10 µM; hits give high values
The whole screen tested about 200,000 compounds, of which about 18,000 (9%) were called active. The sample holds actives, similar compounds and a random draw of the others, so the mix is not that of the screen.

Tell me its inhibition given `COc1ccc2occ(C(=O)c3ccc(N=C(C)N(C)C)cc3)c2c1` as the entry.
100% (active)

Tell me its inhibition given CCc1ccc2c(c1)C1(NN=C(c3ccccc3)S1)C(=O)N2 (stereo unspecified) as the entry.
99.1% (active)

Tell me its inhibition given COc1ccc(NC(=O)C(C)SCc2ccccc2)cc1 (stereo unspecified) as the entry.
-8.12% (inactive)

Tell me its inhibition given O=C1Nc2ccccc2C12Nc1ccccc1S2 (stereo unspecified) as the entry.
-4.59% (inactive)

Tell me its inhibition given `C=C1c2cc(CC)ccc2NC(=O)N1c1ccc(C)cc1` as the entry.
12.2% (inactive)

Tell me its inhibition given `Cc1ccc(S(=O)(=O)N2CCN(C(=O)c3cccs3)CC2)cc1` as the entry.
-4.13% (inactive)
